System: MDA-MB-436
assay_comment: normalised viability (% of control), CellTiter-Blue; higher = more viable cells (100 = DMSO, 0 = benzethonium chloride kill control)
condition_set: incubation time: 72 h
property_measured: normalised viability (%)
Numbers only here, please. The scale is %.

COc1cc(F)c(F)c(Nc2ccc(I)cc2F)c1NS(=O)(=O)C1(C[C@H](O)CO)CC1 [RDEA119] (1 nM)	104
CC(=O)c1c(C)c2cnc(Nc3ccc(N4CCNCC4)cn3)nc2n(C2CCCC2)c1=O (1 nM)	94.1
O=C1CN2Cc3c(ccc(Cl)c3Cl)N=C2N1 [Anagrelide] (1 nM)	80.8
O=NN(CCCl)C(=O)NCCCl [Carmustine] (1 nM)	75.7

Let's switch to this compound now.
Input line: Field request: normalised viability | item: Cn1cnc2c(F)c(Nc3ccc(Br)cc3Cl)c(C(=O)NOCCO)cc21 [Selumetinib] (1 nM)
Output line: 97.6

----------
Listed here are compounds together with their documented normalised viability.
Test system: CAL-85-1
assay_comment: normalised viability (% of control), CellTiter-Blue; higher = more viable cells (about 100 = DMSO control)
condition_set: 10 nM; incubation time: 72 h
Give your result in % as a bare value.

Input line: Record request: normalised viability value, item CC1=C2C[C@H]3[C@@H](CC=C4C[C@@H](O)CC[C@@]43C)[C@@H]2CC[C@]12O[C@@H]1C[C@H](C)CN[C@H]1[C@H]2C [Cyclopamine]
Output line: 109

----------
System: CAL-148
assay_comment: normalised response (% of control), CellTiter-Glo; higher = more viable cells (100 = DMSO, 0 = benzethonium chloride kill control)
condition_set: incubation time: 72 h
property_measured: normalised response (%)
The response must be a number in % with no trailing unit.

Guide cases for normalised response, answers given:
CC(=O)N(O)CCCCCNC(=O)CCC(=O)N(O)CCCCCNC(=O)CCC(=O)N(O)CCCCCN [Deferoxamine] (1 nM)	91.9
Nc1ncn([C@@H]2O[C@H](CO)[C@@H](O)[C@H]2O)c(=O)n1 [Azacitidine] (1000 nM)	96.2

Input line: Quick one: normalised response of Cn1cnc2c(F)c(Nc3ccc(Br)cc3Cl)c(C(=O)NOCCO)cc21 [Selumetinib] (10 nM) ?
Output line: 90.6

Input line: Try the compound COc1cc(F)c(F)c(Nc2ccc(I)cc2F)c1NS(=O)(=O)C1(C[C@H](O)CO)CC1 [Refametinib] (1 nM)
Output line: 101

----------
Test system: DU-4475
assay_comment: normalised viability (% of control), CellTiter-Blue; higher = more viable cells (about 100 = DMSO control)
condition_set: 10 nM; incubation time: 72 h
property_measured: normalised viability (%)
Report the figure in % without appending any unit label.

Solved cases below.
Cn1cc(C2=Nc3cc(NC(=O)C(N)C4CCCCC4)cc4c3C2=CNNC4=O)cn1 (stereo not given)	108
CC1=C2C[C@H]3[C@@H](CC=C4C[C@@H](O)CC[C@@]43C)[C@@H]2CC[C@]12O[C@@H]1C[C@H](C)CN[C@H]1[C@H]2C	107

Input line: Query for DU-4475: what normalised viability does the record show for `COc1cc2c(cc1O)CC[C@@H]1[C@@H]2CC[C@]2(C)[C@@H](O)CC[C@@H]12` ?
Output line: 106

Input line: Can you handle `O=NN(CCCl)C(=O)NCCCl` next?
Output line: 108

Input line: # repeat for `Nc1nc2[nH]cnc2c(=S)[nH]1`
Output line: 105
